Recorded CC50 values for a group of molecules are listed next.
tested on: Influenza A virus; test: Antiviral activity against influenza virus type A H1N1 in MDCK cells assessed as inhibition of virus-induced cytopathic effect; type: functional, organism-based
Respond numerically; units are µg/mL and should not be typed.

Known results for molecules:
>  <molecule>
O=c1c(O[C@@H]2O[C@H](CO)[C@H](O)[C@H](O)[C@H]2O)c(-c2ccc(O)cc2)oc2cc(O)cc(O)c12 [TRIFOLIN]

>  <unit-abbrev>
µg/mL

>  <CC50>
215

$$$$
>  <molecule>
COc1ccc(-c2oc3cc(O)cc(O)c3c(=O)c2O[C@@H]2O[C@H](CO)[C@@H](O)[C@H](O)[C@H]2O[C@@H]2OC[C@@H](O)[C@H](O)[C@H]2O)cc1O[C@@H]1O[C@H](CO)[C@@H](O)[C@H](O)[C@H]1O [AESCUFLAVOSIDE A]

>  <unit-abbrev>
µg/mL

>  <CC50>
322

$$$$
>  <molecule>
O=c1c(O[C@@H]2O[C@H](CO)[C@@H](O)[C@H](O)[C@H]2O)c(-c2ccc(O)cc2)oc2cc(O)cc(O)c12 [ASTRAGALIN]

>  <unit-abbrev>
µg/mL

>  <CC50>
392

$$$$

The record that follows has no CC50 shown yet.
Could you share what CC50 was measured for O=c1c(O[C@@H]2O[C@H](CO)[C@@H](O)[C@H](O)[C@H]2O[C@@H]2OC[C@@H](O)[C@H](O)[C@H]2O)c(-c2ccc(O)c(O)c2)oc2cc(O)cc(O)c12 , tested on Influenza A virus?
198
